System: non-senescent control A549 cells
assay: Nuclei count senolytic assay, TIS model, non-senescent control cells
Format: cell-based, human
experimental setup: log (dose) [M] -7; Control cells; mean
readout: Mean % Cell Survival (%)
Supply the numeric figure in %, leaving out any unit text.

Example molecules with recorded Mean % Cell Survival:
{"molecule": "Cc1c(NC(=O)OC[C@@H]2COCCN2)cn2ncnc(Nc3ccc4c(cnn4Cc4cccc(F)c4)c3)c12.Cl.Cl [BMS 599626 2HCL, BMS 599626 dihydrochloride]", "unit string": "%", "Mean % Cell Survival": 103.285}
{"molecule": "CC(C)=CCc1c(O)cc2oc3cc(O)c(O)c(CC=C(C)C)c3c(=O)c2c1O", "unit string": "%", "Mean % Cell Survival": 92.9654}
{"molecule": "CO[C@H]1C[C@H](O[C@H]2CC[C@]3(C)[C@H]4CC[C@]5(C)[C@@H](C6=CC(=O)OC6)CC[C@]5(O)[C@@H]4CC[C@]3(O)C2)O[C@H](C)[C@H]1O[C@@H]1O[C@H](CO)[C@@H](O)[C@H](O)[C@H]1O", "unit string": "%", "Mean % Cell Survival": 84.2496}

Lab note: next molecule to report on.
Query: Mean % Cell Survival for C=Cc1c(C)c2cc3nc(cc4[nH]c(cc5nc(cc1[nH]2)C(C)=C5CCC(=O)O)c(CCC(=O)OC)c4C)[C@@]1(C)C3=CC=C(C(=O)OC)[C@H]1C(=O)OC [Verteporfin, verteporfin, reference compound] ?
Response: 90.846

----------
Tested on: non-senescent control A549 cells
assay: Nuclei count senolytic assay, TIS model, non-senescent control cells
Assay type: cell-based, human
experimental setup: Homo sapiens, A549; log (dose) [M] -7; Control cells; mean; read-out: Mean % Cell Survival
readout: viability at 0.1 µM (%)
Supply the numeric figure in %, leaving out any unit text.

Example molecules with recorded viability at 0.1 µM:
{"molecule": "O=c1oc2c(O)c(O)cc3c(=O)oc4c(O)c(O)cc1c4c23", "quantitative readout": 65.1}
{"molecule": "O=c1cc(-c2ccc(O)cc2)oc2cc(O)c(O)c(O)c12", "quantitative readout": 102}
{"molecule": "CO[C@H]1C[C@H](O[C@H]2CC[C@@]3(C)[C@H](CC[C@@H]4[C@@H]3CC[C@]3(C)[C@@H](C5=CC(=O)OC5)[C@@H](OC(C)=O)C[C@]43O)C2)O[C@@H](C)[C@@H]1O", "quantitative readout": 6.37}

Query: viability at 0.1 µM for Cc1cc2c(C(C)C)c(O)c(O)c(C=O)c2c(O)c1-c1c(C)cc2c(C(C)C)c(O)c(O)c(C=O)c2c1O ?
Response: 68

Query: viability at 0.1 µM for CC1(C)CCC(c2ccc(Cl)cc2)=C(CN2CCN(c3ccc(C(=O)NS(=O)(=O)c4ccc(N[C@H](CCN5CCOCC5)CSc5ccccc5)c(S(=O)(=O)C(F)(F)F)c4)cc3)CC2)C1 [navitoclax, reference compound] ?
Response: 97.7

Query: viability at 0.1 µM for Cc1c(-c2c(F)cc(C(N)=O)c3[nH]c4c(c23)CC[C@H](C(C)(C)O)C4)cccc1-n1c(=O)c2cccc(F)c2n(C)c1=O ?
Response: 98.9

Query: viability at 0.1 µM for COc1cc(O)c2c(=O)cc(-c3ccc(OC)c(-c4c(O)cc(O)c5c(=O)cc(-c6ccc(O)cc6)oc45)c3)oc2c1 ?
Response: 94

Query: viability at 0.1 µM for CO[C@H]1C[C@@H]2CC[C@@H](C)[C@@](O)(O2)C(=O)C(=O)N2CCCC[C@H]2C(=O)O[C@H]([C@H](C)C[C@@H]2CC[C@@H](OP(C)(C)=O)[C@H](OC)C2)CC(=O)[C@H](C)/C=C(\C)[C@@H](O)[C@@H](OC)C(=O)[C@H](C)C[C@H](C)/C=C/C=C/C=C/1C [Ridaforolimus, ridaforolimus, reference compound] ?
Response: 97.4

Query: viability at 0.1 µM for CO[C@H]1C[C@@H]2CC[C@@H](C)[C@@](O)(O2)C(=O)C(=O)N2CCCC[C@H]2C(=O)O[C@H]([C@H](C)C[C@@H]2CC[C@@H](O)[C@H](OC)C2)CC(=O)[C@H](C)/C=C(\C)[C@@H](O)[C@@H](OC)C(=O)[C@H](C)C[C@H](C)/C=C/C=C/C=C/1C [Rapamycin, rapamycin, reference compound] ?
Response: 128

Query: viability at 0.1 µM for O=c1c(O)c(-c2ccc(O)cc2)oc2c(O)c(O)cc(O)c12 ?
Response: 93.1

Query: viability at 0.1 µM for COC[C@H]1C[C@@H](c2nc(-c3ccc4c(c3)COc3cc5c(ccc6nc([C@@H]7CC[C@H](C)N7C(=O)[C@@H](NC(=O)OC)C(C)C)[nH]c65)cc3-4)c[nH]2)N(C(=O)[C@H](NC(=O)OC)c2ccccc2)C1 [Velpatasvir, velpatasvir, reference compound] ?
Response: 88.2

Query: viability at 0.1 µM for CO[C@H]1C[C@@H]2CC[C@@H](C)[C@@](O)(O2)C(=O)C(=O)N2CCCC[C@H]2C(=O)O[C@H]([C@H](C)C[C@@H]2CC[C@H](n3cnnn3)[C@H](OC)C2)CC(=O)[C@H](C)/C=C(\C)[C@@H](O)[C@@H](OC)C(=O)[C@H](C)C[C@H](C)/C=C/C=C/C=C/1C [Zotarolimus, zotarolimus, reference compound] ?
Response: 95.4

Query: viability at 0.1 µM for COc1cc(/C=C/C(=O)O[C@H]2CC[C@]34C[C@]35CC[C@]3(C)[C@@H]([C@H](C)CCC=C(C)C)CC[C@@]3(C)[C@@H]5CC[C@H]4C2(C)C)ccc1O ?
Response: 105
